# GI50 per record follows
System: UACC-62
Test: NCI tumour cell line growth inhibition, 48 h
Active and inactive are the calls of the source. Rule as the data show it: active = GI50 up to about 1.1 µM and inactive = higher.

Cc1cc(CN(Cc2ccccc2)Cc2nc3ccccc3[nH]2)c(O)c(CN(Cc2nc3ccccc3[nH]2)Cc2nc3ccccc3[nH]2)c1: 3.56 µM (inactive)
CCc1cccc(C)c1N1C(=O)C(=O)C(c2nc3ccccc3o2)/C(=N/NC(=S)NN)C1=O (configuration not stated): > 100 µM (inactive)

Please examine the following record next.
Data request, read-out GI50, for CN(C)CC1CCC/C1=N\O (configuration not stated)
> 100 µM (inactive)

---

Tested on: NCI/ADR-RES
Test: NCI tumour cell line growth inhibition, 48 h
Activity calls are given as the source filed them. Rule as the data show it: active = GI50 up to about 1.1 µM and inactive = higher.
Pick from 1 (yes) (active), 0 (no) (inactive) when you respond.

CC1(CCc2ccccc2)CC1(Br)Br (stereo unspecified): 0 (no)
COc1ccc2c(c1OC(C)=O)C1=CC(=O)CCC13CCNC3C2 (stereo unspecified): 0 (no)

Recorded call for CC1N(C)C(=O)OC12CCN(CCCC(=O)c1ccc(F)cc1)CC2 (stereo unspecified) ?
0 (no)

Recorded call for O=C(/C=C/c1csc(-c2ccccc2)n1)NCc1ccc(C(=O)NCCc2ccccc2)cc1 ?
0 (no)

---

Test system: SW-620
Assay: NCI tumour cell line growth inhibition, 48 h
Calls of active or inactive are those of the source. Cut-off read from the data, not from the text of the source: active = GI50 up to about 1.1 µM and inactive = higher.
OBSERVABLE: GI50

Below, each entry is followed by its recorded GI50 result.
CCOC(=O)C(=O)/C(=C/n1c(=S)[nH]c2ccc([N+](=O)[O-])cc21)C(=O)OCC: > 100 µM (inactive)
C/C=C(/C)C(=O)O[C@H]1C[C@@H]2[C@@H](O)c3occ(C)c3C[C@]2(C)[C@@H](C)C1: 16.2 µM (inactive)

Data request, read-out GI50, for CC(C)(C)c1ccc2c(c1)S(=O)(=O)Nc1ccccc1NS(=O)(=O)c1cc(C(C)(C)C)ccc1OCCOCCOCCO2
> 100 µM (inactive)

Data request, read-out GI50, for CC(C)CC(=O)OC[n+]1cccc(-c2c(COC(=O)NC(C)C)c(COC(=O)NC(C)C)c3n2CCC3)c1
51.1 µM (inactive)

Data request, read-out GI50, for O=C1O/C(=C(/c2ccc(Cl)cc2)c2nc3ccccc3[nH]2)C(O)=C1c1ccc(Cl)cc1
3.48 µM (inactive)

---

# GI50 per record follows
System: SK-MEL-5
Test: NCI tumour cell line growth inhibition, 48 h
Active and inactive are the calls of the source. Rule as the data show it: active = GI50 up to about 1.1 µM and inactive = higher.

Below, each entry is followed by its recorded GI50 result.
C#CCn1c2c(c3ccccc3c1=O)C(=O)c1ccccc1-2: 2.37 µM (inactive)
COc1ccc([N+](=O)[O-])cc1[I+]c1cc([N+](=O)[O-])ccc1OC: 12.4 µM (inactive)
COc1ccc2c(c1C)C(=O)C(O)(CC=C(C)C)O2 (stereo not drawn): > 100 µM (inactive)
CCS(=O)(=O)CCn1cnc2c1c(=O)n(C)c(=O)n2C: > 100 µM (inactive)
C=CCN1C(=O)/C(=C\c2cc(C(C)(C)C)c(O)c(C(C)(C)C)c2)NC1=S: 15.9 µM (inactive)
O=C(CNC(c1ccccc1)(c1ccccc1)c1ccccc1)NC1CCCCC1NC(=O)CNC(c1ccccc1)(c1ccccc1)c1ccccc1 (stereo not drawn): > 100 µM (inactive)
Cc1nc2c(n1CCCl)C(=O)c1ccccc1C2=O: > 10 µM (inactive)

Data request, read-out GI50, for CCOC(=O)/C(C(=S)NCc1ccccc1)=C(/N)N1CCCC1
> 100 µM (inactive)
